tested.on: "Elastikine" human IL-23 (single chain FLAG-tag:GLU-tag:human p40:elasti-linker:human p19, expressed in 293T … (human, UniProt P29460 23-328))
Sequence (P29460 other isoform, or with tags, fused parts or gaps): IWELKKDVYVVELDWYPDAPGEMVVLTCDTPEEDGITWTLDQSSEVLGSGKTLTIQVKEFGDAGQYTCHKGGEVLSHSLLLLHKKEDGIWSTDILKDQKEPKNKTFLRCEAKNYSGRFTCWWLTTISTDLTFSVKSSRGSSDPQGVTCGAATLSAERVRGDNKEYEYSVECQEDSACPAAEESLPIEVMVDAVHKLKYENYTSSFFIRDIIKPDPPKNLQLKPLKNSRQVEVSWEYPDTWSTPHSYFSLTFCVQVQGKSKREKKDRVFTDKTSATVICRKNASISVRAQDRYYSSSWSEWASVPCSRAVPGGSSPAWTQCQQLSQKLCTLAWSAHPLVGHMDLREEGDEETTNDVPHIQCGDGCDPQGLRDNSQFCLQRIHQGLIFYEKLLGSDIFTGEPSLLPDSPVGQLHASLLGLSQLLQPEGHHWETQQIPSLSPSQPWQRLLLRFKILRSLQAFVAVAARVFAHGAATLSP
assay.explanation: KinExA, solution equilibrium
endpoint.label: Kd (pM)
Kindly provide the numeric value in pM only, without the unit symbol.

mouse anti-human IL-23p19 antibody 49A10 (antibody, V domains shown, also called m49A10) VH: EVQLQQSGPELVKPGASVKISCKASGYTFTDYYMNWVKQSHGKSLEWFGDINPNNGDTSYNQKFKGKATLTVDKSSSTAYMELRSLTSEDSADYYCARPHYRNWYFDVWGTGTTVIVSS VL: DIVLTQSPASLVVSLGQRATISCRASKSVSTSGYSFLNWYQQKPGQPPKLLIYLASNLESGVPARFSGSGSGTDFTLNIHPVEAEDATTYYCQHSRELPLTFGSGTKLEMKR
7.4
mouse anti-human IL-23p19 antibody 13F11 (antibody, V domains shown, also called m13F11) VH: EVQLQQSGPELVKPGASVKMSCKASGHTLTRYLMHWVQQKPGQGLEWIGYINPYNDGTKYNEKFKGKATLTSDKSSSTAYMELSSLTSEDSAVYYCARNWDVAYWGQGTLVTVSA VL: DIVMTQSPATLSVTPGDRVSLSCRASQTISDYLHWYQQKSHESPRLLIKYASQSISGIPSRFSGSGSGSHFTLSINSVEPEDVGVYYCQNGHSFPFTFGSGTKLEIKR
11
mouse anti-human IL-23p19 antibody 39G2 (antibody, V domains shown, also called m39G2) VH: QVQLQQPGAELVRPGASVKLSCKASGYSFTSSWMNWVKQRPGQGLEWIGMIHPSDSETRTNQKFKDKATLTVDKSSSTAYMQLSSPTSEDSAVYYCARGMITAPTVYWGQGTLVTVSA VL: DIVLTQSPASLAVSLGQRATISCRASKSVSTSAYSYFHWYQQKPGQPPKLLIYLASNLESGVPARFSGSGSGTDFTLNIHPVEEEDAATYYCQHSRELPWTFGGGTKLEITP
19

Please report the measured Kd for mouse anti-human IL-23p19 antibody 33B12 (antibody, V domains shown, also called m33B12) VH: QVQLQQSGAELARPGASVKLSCKASGYTFTSYSLKWVKQRTGQGLEWIGEIHPRSGNTHYNEKFKGKATLTADKSSSTAYMDLRSLTSEDSAVYFCATNWDLGYWGQGTTITVSS VL: DIVLTQSPATLSVTPGDRVSLSCRASQSISDYLHWFQQRSHESPRLLIKYASQSISGIPSRFSGSGSGSDFTLSINSVEPEDVGVYYCQNGHSFPFTFGSGTKLEIKR 6.8

Specify measured Kd for mouse anti-human IL-23p19 antibody 13B5 (antibody, V domains shown, also called m13B5) VH: EVQLQQSGPELVKPGASVKMSCKASGYTFTRYLMHWVKQKPGQGLEWIGYINPYNDGTNYNEKFKGKATLTSDKSSSTAYMELSSLTSEDSAVYYCARNWDVGGYWGQGTTLTVSS VL: DIVMTQSPATLSVTPGDRVSLSCRASQSISDYLHWYQQKSHESPRLLIKYASQSISGIPSRFSGSGSGSDFTLSINSVEPEDVGVYYCQNGHSFPFTFGSGTKLEIKR . 22

Given mouse anti-human IL-23p19 antibody 7D7 (antibody, V domains shown, also called m7D7) VH: QVQLQQSGAELAKPGASVKLSCKASGYTFTNYWMDWVKQRPGQGLEWIGYINPSSGYVEYNQKFKYKATLTADKTSSTAYMQLSSLTYDDSAVYYCARSPPYYYANTYWSFDVWGTGTTVTVSS VL: DIGLTQSPASLAVSLGQRATISCRASKSVSTSGYSFMHWYQQKPGQPPKLLIYLASNLESGVPARFSGSGSGTDFILNIHPVEEEDAATYYCQHSRELPLAFGAGTKLELTP , respond with its Kd. 2.7
